biological target: T1, postfusion RSV F ectodomain (F ΔFP), subtype A (respiratory syncytial virus subtype A, UniProt P03420 26-109; P03420 147-524); experiment: BLI, IgG on sensor
T1 construct: extracellular domain; also called Postfusion subtype A
experimental endpoint: Kd (nM)

ADI-15619 (antibody, V domains shown, IgG) VH: QVQLVQSGAEAKKPGASVKVSCTASGYTFTNDINWVRQATGQGLEWMGWMNPNNGHTGYGQKFEDRVTLTRDSSRSTAYMELSSLRFEDTAVYYCVYNFWSDSSVSWGRGTLVTVSS VL: QSVVTQPPSVSGAPGQSVAISCTGSSSNIGPAYDVHWYQQTPGAAPKLLIYGDSNRPSGVPDRFSTSKSGTSASLAITGLQAEDEADYYCQSFDSSLRGYVFGTGTKVTVL	1.76
ADI-15577 (antibody, V domains shown, IgG) VH: QVQLVQSGAEVKKPGSSVKVSCKASGGTFGSYAISWVRQAPGQGLEWMGGTIPIFGTADHAQKFQGRVTITADKSTSTAYMELSSLRSEDTAVYYCARGVFRVGCSDTSCLKNYYGTDVWGQGTTVTVSS VL: QSVLIQPASVSGSPGQSITVSCTGSSGDVGAYKYVSWYQQHPGRGPKLIIYDVSARPSGISDRFSGSKSGNTASLTISGLQAEDEADYYCSSYSSSSTLVVFGGGTKVTVL	0.779
ADI-15593 (antibody, V domains shown, IgG; also called Antibody Number 160) VH: QVQLVQSGGGLVRPGGSLRLSCAASGFMFSTYSMNWLRTVPGKGLEWVSSISGSSSHIYYADSVKGRFTISRDNTKNSLYLQMNSLRPEDTALYYCARYFGDYSGLGNYYYYGMDVWGQGTTVTVSS VL: DIVMTQSPVSLPVTPGEPASISCRSSQSLLHSNGNNYLDWYLQRPGQSPQLLIYLGSNRASGVPDRFSGSGSGTDFTLRISRVEAEDVGVYYCMQALQTPRFGGGTKVEIK	0.507
ADI-15651 (antibody, V domains shown, IgG) VH: EVQLVESGPALVKPTQTLTLTCTVSGGVERMSVSWVRQPPGKALEWLARIDWDDDKYYNTFLKTRLTISKGTSKNEVVLTMTNMDPEDTAIYYCARTNRYDKSGYYLYYLDYWGQGTLVTVSS VL: DIQMTQSPSSLSASVGDKVTITCRASQTIASYVNWYQQHPGKAPKLLIYLASRLQSGAPSRFSGSGSGTDFTLTILNLQPEDFATYYCQQSYSSFFTFGPGTKVEIK	0.23
ADI-15578 (antibody, V domains shown, IgG) VH: QVQLVQSGGGLVQPGGSLRLSCVGSGFTFSTYSMNWVRQAPGKGLEWVSHISSSSVTMYYADFVKGRFTISRDNAKNSLYLQMTSLRAEDTAVYYCARDAGPVWSGYYDYGMDVWGQGTTVTVSS VL: ETTLTQSPATLSLSPGERATLSCRASQSVSSLLAWYQQKPGQAPRLLIFDASKRATGIPARFSGSGSGTDFTLTISSLEPEDFAVYYCQQRYNWPPLTFGGGTKVEIK	1.27
